- tested-target: 3-oxo-5-alpha-steroid 4-dehydrogenase 1 (Homo sapiens)
- Sequence (P18405 whole entry): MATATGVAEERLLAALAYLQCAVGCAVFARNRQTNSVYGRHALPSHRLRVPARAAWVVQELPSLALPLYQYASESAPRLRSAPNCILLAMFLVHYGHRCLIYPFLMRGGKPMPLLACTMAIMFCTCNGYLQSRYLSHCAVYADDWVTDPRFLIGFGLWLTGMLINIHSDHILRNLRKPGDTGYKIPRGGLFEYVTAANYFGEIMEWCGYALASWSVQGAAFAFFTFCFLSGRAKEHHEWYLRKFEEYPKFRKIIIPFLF
- assay-text: Inhibition of recombinant Steroid 5-alpha-reductase type I expressed in CHO cells
- Assay type: cell-based
value-kind: IC50 (nM)
Hi! Could you send only the number? It should be in nM, unit omitted.

Please review the following examples before continuing.
1) CC1=C2CC(C)c3cc(Cl)ccc3N2CCC1=O (stereo not given)
8.5
2) CC1Cc2cc(Cl)ccc2-n2ccc(=O)cc21 (stereo not given)
1880
3) CC1C(=O)C=CN2c3ccccc3CCC12 (stereo not given)
4300
4) Cc1ccc2c(c1)C(C)CC1=CC(=O)CCN12 (stereo not given)
14.3
5) Cc1ccc2c(c1)CCC1C(C)C(=O)C=CN21 (stereo not given)
312

Fill blank: measured IC50 of the compound CC1CC2=CC(=O)CCN2c2ccc(Cl)cc21 (stereo not given) is ____.
14.4

Fill blank: measured IC50 of the compound CC1=C2C(C)Cc3cc(Cl)ccc3N2CCC1=O (stereo not given) is ____.
15.6

Fill blank: measured IC50 of the compound CC1=C2CC(C)c3cc(C)ccc3N2CCC1=O (stereo not given) is ____.
15.8

Fill blank: measured IC50 of the compound CC1CC(=O)C=C2CCc3cc(Cl)ccc3N21 (stereo not given) is ____.
204

Fill blank: measured IC50 of the compound Cc1c2n(ccc1=O)-c1ccccc1CC2 is ____.
1400
